# Target Under Test: Factor X (FX), P00742
# Sequence (P00742 whole entry, looked up): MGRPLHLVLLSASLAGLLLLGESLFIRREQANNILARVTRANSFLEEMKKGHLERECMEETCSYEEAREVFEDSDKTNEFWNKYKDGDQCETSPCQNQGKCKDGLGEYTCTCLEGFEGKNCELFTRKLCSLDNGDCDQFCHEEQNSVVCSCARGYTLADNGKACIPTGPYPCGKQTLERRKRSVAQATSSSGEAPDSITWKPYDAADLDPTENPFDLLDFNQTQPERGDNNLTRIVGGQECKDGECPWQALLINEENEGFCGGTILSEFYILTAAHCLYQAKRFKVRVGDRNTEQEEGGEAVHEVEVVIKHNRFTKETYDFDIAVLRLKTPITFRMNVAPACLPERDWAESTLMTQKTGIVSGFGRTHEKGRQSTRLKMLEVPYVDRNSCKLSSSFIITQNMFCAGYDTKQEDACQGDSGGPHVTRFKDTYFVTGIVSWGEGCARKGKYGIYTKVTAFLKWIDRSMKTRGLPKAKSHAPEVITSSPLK
Reported kcat/KM values for the following proteins.
Only the number, expressed in M⁻¹ s⁻¹, is required.

>>> recorded_result("FIXa-Y155F/K228N/R318Y/R338E/R403E/E410N (protein) chain 1: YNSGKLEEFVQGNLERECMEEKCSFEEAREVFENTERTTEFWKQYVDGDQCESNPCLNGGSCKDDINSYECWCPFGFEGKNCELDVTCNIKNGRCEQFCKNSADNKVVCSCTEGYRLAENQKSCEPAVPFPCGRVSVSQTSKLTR chain 2: VVGGEDAKPGQFPWQVVLNGKVDAFCGGSIVNEKWIVTAAHCVETGVNITVVAGEHNIEETEHTEQKRNVIRIIPHHNYNAAINKYNHDIALLELDEPLVLNSYVTPICIADKEYTNIFLKFGSGYVSGWGRVFHKGYSALVLQYLRVPLVDRATCLESTKFTIYNNMFCAGFHEGGRDSCQGDSGGPHVTEVEGTSFLTGIISWGEECAMKGKYGIYTKVSEYVNWIKNKTKLT")
"1.6e+08"

Let us examine a further case.
Retrieve kcat/KM measured for FIXa variant K293A/R338A/R403A (protein) chain 1: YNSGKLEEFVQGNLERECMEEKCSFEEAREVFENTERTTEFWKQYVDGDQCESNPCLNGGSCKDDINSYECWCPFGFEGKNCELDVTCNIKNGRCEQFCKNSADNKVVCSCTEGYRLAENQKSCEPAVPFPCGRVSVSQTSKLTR chain 2: VVGGEDAKPGQFPWQVVLNGKVDAFCGGSIVNEKWIVTAAHCVETGVKITVVAGEHNIEETEHTEQKRNVIRIIPHHNYNAAINKYNHDIALLELDEPLVLNSYVTPICIADAEYTNIFLKFGSGYVSGWGRVFHKGRSALVLQYLRVPLVDRATCLASTKFTIYNNMFCAGFHEGGRDSCQGDSGGPHVTEVEGTSFLTGIISWGEECAMKGKYGIYTKVSAYVNWIKEKTKLT and print it.
2.5e+07
